These measurements were taken from patent US20060062729A1.

Form field: Specific NT-Binding (% control) (one value per entry).
Target: NTR1 (Homo sapiens)
Sequence (P30989 whole entry): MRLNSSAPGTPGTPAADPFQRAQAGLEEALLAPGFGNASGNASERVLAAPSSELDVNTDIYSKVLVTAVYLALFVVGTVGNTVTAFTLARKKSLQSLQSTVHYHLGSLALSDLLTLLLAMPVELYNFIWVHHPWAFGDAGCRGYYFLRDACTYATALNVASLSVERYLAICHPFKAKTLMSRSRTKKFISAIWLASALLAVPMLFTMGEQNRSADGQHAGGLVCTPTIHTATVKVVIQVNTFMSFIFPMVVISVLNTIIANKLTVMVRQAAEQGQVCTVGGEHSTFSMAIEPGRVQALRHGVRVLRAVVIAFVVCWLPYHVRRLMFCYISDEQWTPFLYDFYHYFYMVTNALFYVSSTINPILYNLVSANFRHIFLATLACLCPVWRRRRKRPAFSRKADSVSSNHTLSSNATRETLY
Assay: ^125I-NT binding to isolated PC3 cell membranes
Set-up: Ab-NTR1 detected two major bands in extracts of PC3 cells, the parent protein of 50 kDa; endogenous in cells; host or cells: PC3 cells (ATCC)
Conditions: 10 μM LOX pathway blocker
Express the result in % control but write the number alone.

Study these solved cases before continuing.
>>> observed_value("CC(Cc1ccc(O)c(O)c1)C(C)Cc1ccc(O)c(O)c1 (centres unmarked) [NDGA, Nordihydroguaiaretic acid]")
110
>>> observed_value("CC1=C(/C=C/C(C)=C/C=C/C(C)=C/C(=O)O)C(C)(C)CCC1")
102
>>> observed_value("CC(C)c1ccc2c(c1)c(SC(C)(C)C)c(CC(C)(C)C(=O)O)n2Cc1ccc(Cl)cc1")
99

Provide value of Specific NT-Binding (% control) for this record tested with NTR1 (Homo sapiens): CCCCCC(O)c1cccc(OCc2ccc3ccccc3n2)c1 (centres unmarked)
101

Record CC1=C(C)C(=O)C(CCCCC#CCCCC#CCO)=C(C)C1=O : what is its Specific NT-Binding (% control) with NTR1 (Homo sapiens)?
107
